Kindly state IC50 for each of the entries shown.
- assay-target: ACE (from rabbit lung) (Oryctolagus cuniculus)
- Construct: ACE (from rabbit lung); purchased Sigma Chemical Co. (St. Louis, MO, USA); host or cells: rabbit lung tissue
- Sequence (P12822 34-1310): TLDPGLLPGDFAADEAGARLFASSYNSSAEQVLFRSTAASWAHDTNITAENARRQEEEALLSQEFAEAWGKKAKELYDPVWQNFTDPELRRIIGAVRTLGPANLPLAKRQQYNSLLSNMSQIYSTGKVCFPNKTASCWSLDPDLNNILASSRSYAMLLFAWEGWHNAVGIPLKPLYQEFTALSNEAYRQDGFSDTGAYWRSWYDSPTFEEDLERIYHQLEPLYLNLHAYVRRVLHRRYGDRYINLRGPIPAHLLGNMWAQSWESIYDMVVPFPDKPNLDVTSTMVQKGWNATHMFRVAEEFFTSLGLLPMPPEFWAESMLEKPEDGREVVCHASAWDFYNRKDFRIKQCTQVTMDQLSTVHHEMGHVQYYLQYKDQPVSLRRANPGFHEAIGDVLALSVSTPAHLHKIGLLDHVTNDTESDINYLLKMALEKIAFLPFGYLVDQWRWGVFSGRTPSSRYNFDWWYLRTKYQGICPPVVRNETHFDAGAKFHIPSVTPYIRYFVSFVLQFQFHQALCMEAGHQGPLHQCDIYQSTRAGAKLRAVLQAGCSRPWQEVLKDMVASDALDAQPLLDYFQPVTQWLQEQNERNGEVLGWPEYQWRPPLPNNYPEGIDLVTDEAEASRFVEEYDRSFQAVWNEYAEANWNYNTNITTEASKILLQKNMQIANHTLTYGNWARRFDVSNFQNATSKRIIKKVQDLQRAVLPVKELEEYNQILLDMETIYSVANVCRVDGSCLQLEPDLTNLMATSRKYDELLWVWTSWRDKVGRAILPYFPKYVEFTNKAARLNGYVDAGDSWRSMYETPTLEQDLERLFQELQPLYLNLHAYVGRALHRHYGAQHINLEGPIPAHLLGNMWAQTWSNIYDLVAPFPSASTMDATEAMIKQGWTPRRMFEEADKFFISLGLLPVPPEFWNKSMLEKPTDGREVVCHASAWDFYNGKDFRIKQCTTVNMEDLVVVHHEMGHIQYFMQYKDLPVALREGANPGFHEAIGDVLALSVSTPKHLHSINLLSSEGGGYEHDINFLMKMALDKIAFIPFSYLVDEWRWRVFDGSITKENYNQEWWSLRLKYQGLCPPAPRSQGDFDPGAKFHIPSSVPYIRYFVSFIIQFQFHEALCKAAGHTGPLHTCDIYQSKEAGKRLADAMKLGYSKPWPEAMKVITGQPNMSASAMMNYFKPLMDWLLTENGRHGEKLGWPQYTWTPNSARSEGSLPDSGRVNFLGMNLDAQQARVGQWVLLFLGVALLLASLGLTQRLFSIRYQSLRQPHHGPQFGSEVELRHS
- assay-overview: ACE inhibition and IC50 assay (FAPGG substrate)
- Assay type: biochemical
- applied-conditions: purified ACE inhibitors, same values as in μM given in mg/mL
Ends that are not written are not given here.
One number for each entry, in µM.

# substance, unit-name, IC50
rows = [
    ("MELVLR [MELVLR, Met-Glu-Leu-Val-Leu-Arg]", "µM", 236),
]

Here is the next item to consider.
// query IC50 value for entry FGMPLDR [FGMPLDR, Phe-Gly-Met-Pro-Leu-Asp-Arg]
219
